Activity: recorded values
Tested on: Mus musculus
Method description: Effect on liver weight in ovariectomized mouse at 0.110 mmol/kg, ip once daily for 4 weeks
Format: functional
Where a SMILES comes first, the peptide text is derived from it. The star is where a group is joined. Succinyl(O17-estradiol) = C[C@]12CC[C@@H]3c4ccc(O)cc4CC[C@H]3[C@@H]1CC[C@@H]2OC(=O)CCC(=O)*; X1 = C[C@]12CC[C@@H]3c4ccc(OCC(=O)*)cc4CC[C@H]3[C@@H]1CCC2O
# output: bare number, implied unit g

Some compounds with recorded Activity:
Compound	Unit tag	Activity
C[C@]12CC[C@@H]3c4ccc(O)cc4CC[C@H]3[C@@H]1CC[C@@H]2OC(=O)CCC(=O)N[C@@H](CCCNC(=N)N)C(=O)NCC(=O)N[C@@H](CC(=O)O)C(=O)N[C@@H](CO)C(=O)O ({Succinyl(O17-estradiol)}-RGDS-OH)	g	1.371
C[C@]12CC[C@@H]3c4ccc(O)cc4CC[C@H]3[C@@H]1CC[C@@H]2O [ESTRADIOL]	g	1.565

As a next step, examine the compound that follows.
Q. Item under review: C[C@]12CC[C@@H]3c4ccc(OCC(=O)N[C@@H](CCCNC(=N)N)C(=O)NCC(=O)N[C@@H](CC(=O)O)C(=O)N[C@@H](Cc5ccccc5)C(=O)O)cc4CC[C@H]3[C@@H]1CCC2O (stereo partly drawn) (X1-RGDF-OH) . Reported Activity?
A. 1.395
